test system: Shay ulcers; assay: Shay Ulcer Test by Intraperitoneal Administration; type: in vivo, Donryu rats; conditions: Rattus norvegicus, ip, 18 h; 350 mg/Kg intraperitoneally in 0.5% CMC; read-out: Inhibitory Ratio
Task for the reader: assign each of the following molecules its reported inhibition in vivo at 350 mg/kg.
Write the number in % without appending the unit.

Req: Query the reported inhibition in vivo at 350 mg/kg for Shay ulcers; item: NC[C@H]1CC[C@H](C(=O)Oc2ccc(-c3ccccc3)cc2)CC1
Resp: 58

Req: Query the reported inhibition in vivo at 350 mg/kg for Shay ulcers; item: NC[C@H]1CC[C@H](C(=O)Oc2ccc(C(=O)O)cc2)CC1
Resp: 71

Req: Query the reported inhibition in vivo at 350 mg/kg for Shay ulcers; item: NC[C@H]1CC[C@H](C(=O)Oc2ccccc2)CC1
Resp: 84

Req: Query the reported inhibition in vivo at 350 mg/kg for Shay ulcers; item: NC[C@H]1CC[C@H](C(=O)Oc2ccc(CCC(=O)O)cc2)CC1 [drawing 3]
Resp: 70

Req: Query the reported inhibition in vivo at 350 mg/kg for Shay ulcers; item: NC[C@H]1CC[C@H](C(=O)Oc2ccc(C=CC(=O)O)cc2)CC1
Resp: 76

Req: Query the reported inhibition in vivo at 350 mg/kg for Shay ulcers; item: NC[C@H]1CC[C@H](C(=O)Oc2ccc(CC(N)C(=O)O)cc2)CC1 (some centres unmarked)
Resp: 71

Req: Query the reported inhibition in vivo at 350 mg/kg for Shay ulcers; item: COc1cc(C=O)ccc1OC(=O)[C@H]1CC[C@H](CN)CC1
Resp: 84

Req: Query the reported inhibition in vivo at 350 mg/kg for Shay ulcers; item: NC[C@H]1CC[C@H](C(=O)Oc2ccc3ccccc3c2)CC1
Resp: 84

Value source: patent US3995055A
